Exercise: state measured binding signal for each of the sequences provided.
Tested target: GST-Dm-Relish (Drosophila melanogaster, UniProt Q94527 99-473)
Sequence: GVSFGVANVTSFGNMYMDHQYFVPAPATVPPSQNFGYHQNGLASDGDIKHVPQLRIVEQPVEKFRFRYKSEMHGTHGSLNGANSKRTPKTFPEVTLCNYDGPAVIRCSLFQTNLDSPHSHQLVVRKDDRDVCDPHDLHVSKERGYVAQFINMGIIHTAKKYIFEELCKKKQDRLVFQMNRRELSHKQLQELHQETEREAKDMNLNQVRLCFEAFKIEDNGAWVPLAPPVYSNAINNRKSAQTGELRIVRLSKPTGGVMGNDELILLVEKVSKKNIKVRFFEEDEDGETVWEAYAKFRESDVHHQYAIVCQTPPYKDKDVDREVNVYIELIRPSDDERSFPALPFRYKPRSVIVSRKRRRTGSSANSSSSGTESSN
Assay notes: protein-binding microarray (PBM); PBM: ~300 nM protein, 6 mM HEPES pH 7.8, 80 mM KCl, 0.5 mM EDTA, 0.5 mM EGTA, 6% glycerol, 35 ng/ul poly-dIdC, 1% milk, 1 h, room temperature; high values mean tight binding
Details: dsDNA, one strand shown
Answers are plain numbers, in z-score.

The recorded binding signal for entry CCGATTAACATCAAAAAACTACCTGATGTTAATCGGGTCTTGATTCGCTTGACGCTGCTG equals 6.2

For the 6 sequences below, give their binding signal values.
1. CCGATTAACATCAGGACTATCCCTGATGTTAATCGGGTCTTGATTCGCTTGACGCTGCTG
2. CCGATTAACATCAGGGGAAGACCTGATGTTAATCGGGTCTTGATTCGCTTGACGCTGCTG
3. CCGATTAACATCAGAAACCCCCATGATGTTAATCGGGTCTTGATTCGCTTGACGCTGCTG
4. CCGATTAACATCAGGGGTTTTTATGATGTTAATCGGGTCTTGATTCGCTTGACGCTGCTG
5. CCGATTAACATCAGGGAAAAACATGATGTTAATCGGGTCTTGATTCGCTTGACGCTGCTG
6. CCGATTAACATCAGGGGGGAAAATGATGTTAATCGGGTCTTGATTCGCTTGACGCTGCTG

Result ::
[1.48, 8.75, 8.35, 8.58, 6.52, 4.99]

Please state binding signal for every sequence in the list that follows.
1. CCGATTAACATCAGGAAATTCCATGATGTTAATCGGGTCTTGATTCGCTTGACGCTGCTG
2. CCGATTAACATCACTATTTTCCCTGATGTTAATCGGGTCTTGATTCGCTTGACGCTGCTG

Result ::
1: 1.68; 2: 1.52

====

Tested target: GST-Dm-Relish (Drosophila melanogaster, UniProt Q94527 99-473)
Sequence: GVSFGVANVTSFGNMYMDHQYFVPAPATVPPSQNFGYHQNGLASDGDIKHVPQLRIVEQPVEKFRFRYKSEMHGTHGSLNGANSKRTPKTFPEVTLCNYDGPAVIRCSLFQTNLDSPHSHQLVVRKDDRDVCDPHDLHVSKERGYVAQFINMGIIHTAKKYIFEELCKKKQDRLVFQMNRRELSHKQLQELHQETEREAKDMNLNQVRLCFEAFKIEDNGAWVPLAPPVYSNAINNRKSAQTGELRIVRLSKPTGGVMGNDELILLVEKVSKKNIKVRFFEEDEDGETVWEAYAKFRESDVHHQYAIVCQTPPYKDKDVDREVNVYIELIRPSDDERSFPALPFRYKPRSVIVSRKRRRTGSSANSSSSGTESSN
Assay notes: protein-binding microarray (PBM); PBM: ~300 nM protein, 6 mM HEPES pH 7.8, 80 mM KCl, 0.5 mM EDTA, 0.5 mM EGTA, 6% glycerol, 35 ng/ul poly-dIdC, 1% milk, 1 h, room temperature; high values mean tight binding
Details: dsDNA, one strand shown
Attribute measured: binding signal (z-score)
Give bare numbers, in z-score.

Illustrative cases are given below, each with its answer.
Recorded binding signal for CCGATTAACATCACATGGGAATCTGATGTTAATCGGGTCTTGATTCGCTTGACGCTGCTG on GST-Dm-Relish (Drosophila melanogaster, UniProt Q94527 99-473) was 1.82

GET /values?item= CCGATTAACATCAAACGCCCCCCTGATGTTAATCGGGTCTTGATTCGCTTGACGCTGCTG &system= GST-Dm-Relish (Drosophila melanogaster, UniProt Q94527 99-473) returns binding signal: 4.9

Item CCGATTAACATCAGGAAAACACATGATGTTAATCGGGTCTTGATTCGCTTGACGCTGCTG ; assay system GST-Dm-Relish (Drosophila melanogaster, UniProt Q94527 99-473); binding signal reported as 2.56

Measured on GST-Dm-Relish (Drosophila melanogaster, UniProt Q94527 99-473), CCGATTAACATCAGAAAATTTCCTGATGTTAATCGGGTCTTGATTCGCTTGACGCTGCTG has a documented binding signal of 1.75

Tested on GST-Dm-Relish (Drosophila melanogaster, UniProt Q94527 99-473): CCGATTAACATCACCTCTCGCGCTGATGTTAATCGGGTCTTGATTCGCTTGACGCTGCTG . Observed binding signal: 1.25

I'm hoping you can list binding signal for every sequence here, please.
1. CCGATTAACATCACCCGCCCCCCTGATGTTAATCGGGTCTTGATTCGCTTGACGCTGCTG
2. CCGATTAACATCACTTTTTCCCCTGATGTTAATCGGGTCTTGATTCGCTTGACGCTGCTG

Result ::
1. 4.78
2. 3.45

Dear reader, for each entry below, please note its binding signal.
1. CCGATTAACATCAAAGTCCCCCGTGATGTTAATCGGGTCTTGATTCGCTTGACGCTGCTG
2. CCGATTAACATCAAGAAGTTCCCTGATGTTAATCGGGTCTTGATTCGCTTGACGCTGCTG

Result ::
1. 7.35
2. 3.58

====

Tested target: GST-Dm-Relish (Drosophila melanogaster, UniProt Q94527 99-473)
Sequence: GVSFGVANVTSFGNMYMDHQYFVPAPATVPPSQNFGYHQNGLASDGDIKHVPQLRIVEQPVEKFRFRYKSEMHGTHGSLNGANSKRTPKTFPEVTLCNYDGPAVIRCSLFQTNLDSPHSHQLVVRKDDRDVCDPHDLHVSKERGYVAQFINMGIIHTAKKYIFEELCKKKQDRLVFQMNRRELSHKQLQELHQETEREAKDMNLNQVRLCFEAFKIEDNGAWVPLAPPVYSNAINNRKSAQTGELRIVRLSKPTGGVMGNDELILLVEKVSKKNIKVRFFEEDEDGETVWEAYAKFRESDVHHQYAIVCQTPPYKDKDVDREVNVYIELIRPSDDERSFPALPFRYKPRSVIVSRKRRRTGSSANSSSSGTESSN
Assay notes: protein-binding microarray (PBM); PBM: ~300 nM protein, 6 mM HEPES pH 7.8, 80 mM KCl, 0.5 mM EDTA, 0.5 mM EGTA, 6% glycerol, 35 ng/ul poly-dIdC, 1% milk, 1 h, room temperature; Ap Aiptasia and Nv Nematostella (sea anemones) / Co Capsaspora / Aq Amphimedon (sponge) / Dm Drosophila / Hu human; RHD is the Rel homology domain; high values mean tight binding
Details: dsDNA, one strand shown
Attribute measured: binding signal

Would you please look over these solved cases?
Per the record, CCGATTAACATCACCCACGAGGGTGATGTTAATCGGGTCTTGATTCGCTTGACGCTGCTG has binding signal of 1.29 z-score

get_value(item= CCGATTAACATCAAGACTCCCCCTGATGTTAATCGGGTCTTGATTCGCTTGACGCTGCTG , readout=binding signal) returns 4.5 z-score

// CCGATTAACATCAGGGATTTACATGATGTTAATCGGGTCTTGATTCGCTTGACGCTGCTG : binding signal value = 9.71 z-score

The recorded binding signal for entry CCGATTAACATCACTAAAATCCCTGATGTTAATCGGGTCTTGATTCGCTTGACGCTGCTG equals 5.48 z-score

Note to self: binding signal recorded for CCGATTAACATCAGGAACTCCCATGATGTTAATCGGGTCTTGATTCGCTTGACGCTGCTG was 4.29 z-score

What the record says about CCGATTAACATCACACACCCCCCTGATGTTAATCGGGTCTTGATTCGCTTGACGCTGCTG : binding signal is 3.82 z-score

// binding signal value for CCGATTAACATCAATATTTCCCATGATGTTAATCGGGTCTTGATTCGCTTGACGCTGCTG : 1.61 z-score

Lab note: CCGATTAACATCAGTTTTTTCCATGATGTTAATCGGGTCTTGATTCGCTTGACGCTGCTG gave binding signal of 1.54 z-score

The sequence identified as CCGATTAACATCAGGGAATCCCATGATGTTAATCGGGTCTTGATTCGCTTGACGCTGCTG registered its binding signal at 10.4 z-score

Consider CCGATTAACATCAGGGTGGGAAATGATGTTAATCGGGTCTTGATTCGCTTGACGCTGCTG . Its measured binding signal is 1.62 z-score

Quick request: binding signal for each listed item, please.
1. CCGATTAACATCATGTATGCCCCTGATGTTAATCGGGTCTTGATTCGCTTGACGCTGCTG
2. CCGATTAACATCAAAAAATACCCTGATGTTAATCGGGTCTTGATTCGCTTGACGCTGCTG
3. CCGATTAACATCAAGGGGAAATCTGATGTTAATCGGGTCTTGATTCGCTTGACGCTGCTG
4. CCGATTAACATCAAGCACCCCCCTGATGTTAATCGGGTCTTGATTCGCTTGACGCTGCTG
5. CCGATTAACATCAGGAGTGCCCCTGATGTTAATCGGGTCTTGATTCGCTTGACGCTGCTG
6. CCGATTAACATCAATCTTTCCCCTGATGTTAATCGGGTCTTGATTCGCTTGACGCTGCTG
7. CCGATTAACATCAGGGAATTACCTGATGTTAATCGGGTCTTGATTCGCTTGACGCTGCTG

Result ::
1.12 z-score
8.93 z-score
6.04 z-score
4.97 z-score
2.25 z-score
3.33 z-score
8.83 z-score

// field: binding signal; key: CCGATTAACATCAATAACCCCCATGATGTTAATCGGGTCTTGATTCGCTTGACGCTGCTG ; value = 5.69 z-score
